# System: Hexobarbital sleeping time
# measurement.description: animal or person
# Type: in vivo
# test.settings: Table I; LD50/ED50, mice
Flag rule - Therapeutical index (narcosis potentiating) less than 20 flags YES; the remaining entries get NO.

INSERT INTO measurements (compound, classification) VALUES
  ('C(=C1/CCCC/C1=N\OCCCN1CCN(c2ccccc2)CC1)/c1ccccc1 [Example 1]', 'YES'),
  ('CCCC(C)(COC(N)=O)COC(N)=O [Meprobamate, reference compound]', 'YES'),
  ('CC(CO/N=C1\CCCCC\C1=C/c1ccccc1)N(C)C (stereo not shown) [Example 8]', 'NO'),
  ('CN(C)CCCO/N=C1\CCCCCC\C1=C/c1ccccc1 [Example 11]', 'NO'),
  ('CC(CO/N=C1\CCCC\C1=C/c1ccccc1)N(C)C (stereo not shown) [Example 9]', 'NO'),
  ('CN(C)CCO/N=C1\CCCC\C1=C/c1ccc(Cl)cc1 [Example 13]', 'NO');
